Each entry below carries its recorded MFI.
Target: T1, mouse SEMA4D, full length, on CHO-K1 cells (CHO-K1 mSEMA4D) (mouse, UniProt O09126 24-861)
T1 construct: whole, on cells; also called murine SEMA4D recombinant cells
T1 sequence (looked up): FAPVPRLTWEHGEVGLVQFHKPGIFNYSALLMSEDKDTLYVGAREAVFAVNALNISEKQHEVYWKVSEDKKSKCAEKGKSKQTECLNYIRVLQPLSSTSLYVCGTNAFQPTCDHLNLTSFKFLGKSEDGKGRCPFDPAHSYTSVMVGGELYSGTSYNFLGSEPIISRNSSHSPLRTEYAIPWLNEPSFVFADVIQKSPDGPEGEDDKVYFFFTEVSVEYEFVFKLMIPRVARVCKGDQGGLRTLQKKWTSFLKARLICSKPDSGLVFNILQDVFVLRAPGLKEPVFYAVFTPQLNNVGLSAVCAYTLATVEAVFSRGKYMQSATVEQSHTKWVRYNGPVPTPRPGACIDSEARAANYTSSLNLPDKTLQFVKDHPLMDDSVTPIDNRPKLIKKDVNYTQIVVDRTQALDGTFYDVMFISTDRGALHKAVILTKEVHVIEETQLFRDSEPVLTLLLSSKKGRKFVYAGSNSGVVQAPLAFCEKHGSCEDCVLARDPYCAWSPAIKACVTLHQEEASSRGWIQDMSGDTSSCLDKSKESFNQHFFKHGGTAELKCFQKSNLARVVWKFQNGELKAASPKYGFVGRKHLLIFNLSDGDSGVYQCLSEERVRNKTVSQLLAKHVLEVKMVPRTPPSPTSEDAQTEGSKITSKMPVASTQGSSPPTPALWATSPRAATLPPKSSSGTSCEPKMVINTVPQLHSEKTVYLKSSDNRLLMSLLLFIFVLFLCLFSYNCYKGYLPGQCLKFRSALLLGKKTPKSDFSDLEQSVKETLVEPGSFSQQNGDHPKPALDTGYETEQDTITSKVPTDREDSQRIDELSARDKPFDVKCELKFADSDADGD
Experiment: FACS, CHO-K1 mSEMA4D cells; Ab 0.534 nM

Record excerpt, results attached:
{"columns": ["BINDER", "MFI"],
 "data": [
  ["37C4F7 (antibody, V domains shown, Mouse monoclonal antibody purified from hybridoma supernatant on protein A) VH: EFQLQQSGPEVVKPGASVKISCKASGYSFTDYNMNWMKQSKGKSLEWIGVINPNYGTTTYNQNFKGKATLTVDQSSSTAYMQLNSLTSEDSAVYYCARDMYYVYAYYTMDYWGQGTSVTVSS VL: DVVMTQTPLSLPVSLGDQASISCRSSQSLVHSNGHTYLHWYLQRPGQSPTLLIYKVSNRFSGVPDRFSGSGSGTDFTLKISRVEAEDLGVYFCSQGTHVPWTFGGGTKLEIK", 29.2],
  ["42B7G2 (antibody, V domains shown, Mouse monoclonal antibody purified from hybridoma supernatant on protein A) VH: QVQLQQSGAELARPGASVKLSCKASGYTFTDYGISWVKQRTGQGLEWIGEIYLRNDNSYYNEKFKGKATLTADKSSNTAYMELRSLTSEDSAVYFCARWGDHGNNYEDAMDYWGQGTSVTVSS VL: DIVLTQSPASLAMSLGKRATISCRASESVSIIGSNLIHWYQQKPGQPPKLLIYHASNLETGVPARFSGSGSRTDFTLTIDPVEEDDVAIYYCLQSRKVPYTFGGGTKLEIK", 31.7],
  ["31C11G2 (antibody, V domains shown, Mouse monoclonal antibody purified from hybridoma supernatant on protein A) VH: EVQLQQSGAELVRPGASVKLSCTASGFNIKDEYIHWVKQRPEQGLEWIGWIDPANGHTEYASRFQAKATITADTSSNTAYLQLSSLTSEDTAVYYCTTGDYDGFVYWGQGTLVTVST VL: QIVLTQSPAIMSASPGEKVTIFCSARSSVSYMYWYQQKPGSSPKPWIYRTSNLASGVPARFSGSGSGTSYSLTISSMEAEDAATYYCQHYHTYPYTFGGGTKLEIK", 30.7]
]}

With those in mind, consider the next binder.
Lookup: // query MFI value for entry 37F11F9 (antibody, V domains shown, Mouse monoclonal antibody purified from hybridoma supernatant on protein A) VH: EVQLQQSGPVLVKPGASVKMSCKASGYTFTDYYMNWVKQSHGKSLEWIGLINPYSGGSTFNQKFKAKATLTVDKSSSSAYMDLNSLTSEDSAVYYCARVGDGYYGVTHGMDYWGQGTSVTVSS VL: DIVMTPSQKFMSTTVGDRVSITCKASQNVGTAVAWYQQKPGQSPTILIYSASNRYTGVPDRFTGSGSGTDFTLTISNMKSEDLADYFCQQYYIYPFTFAAGTKLELK
Found: 30.9
